Assay: soluble on expression in E. coli; label from the status in PepcDB or PDB records
readout name: soluble on expression in E. coli

MSPPLAEERLTRIVQLLAERGTLRTAALTELLGVSSATIRRDLDVLAGRGLIRKLHGGAALAAPEPEAPLNQDQFYRDRQQVNHLGKQRLAGRALELIAPGQTLYLDAGTTALALAEALQRTPQLTRTLRVVTHGIDVAYVLNGECALYVVGGEVYGSTYSLTGPDALSTVSRYNYDLFFVSCTSIDPAGRLTNSNSVEAQQKASILRQSRRSVLIADQSKWGPPGFAPFAGFAEVSAWVTDRAPATARAAFEQAGVTVLEADASARELSADLEHHHHHH soluble
AQLQNLVLKDREATPNDHTFVPRDIRDNVGEVVESTGVPIGESRFTISLRKTSNGRYKSTLKLVVPVVQSQTVNGIVTPVVVRTSYVTVDFDYDARSTTKERNNFVGMIADALKADKMLVHDTIVNLQGVY soluble
MNIEALERLRGWMRAKGFSRFYVVRPENFAWLVGGANTLGMGESVAYLEVGEEVVLHTSAIEHPRMVEEEAPGLPARVHPWYAFPPPPGPNDLEHDLTPLRLVLSREAQGAFTHLGREAAMAVGEVVRSARPEWTEYALAGALAEALWGRGLRPLLLLVAVDERLFRYRHPLPKGKPLGRAFMAVVCAERRGLVANLTRMASFGHGEVEARYRKVLEVEAAALSASRPGATLGEVFAALQGAYARVGFPRAWGEHHQGGVGGYRSREVVATPGHPLVLEAGMVLAWNPSLSGAKVEDTFLLTEGGLLNLTEDPFWPAVEVEGRRRPDLWRGGG soluble
